target: T1, RSV F ectodomain stabilized in the postfusion conformation (F ΔFP), subtype A (respiratory syncytial virus subtype A, UniProt P03420 26-109; P03420 147-524); assay: BLI (Octet), IgG on AHQ sensor, 100 nM antigen
T1 construct: extracellular domain; Trimer; also called Postfusion subtype A
observed_property: Kd

Some solved cases for reference:
binder | observed_measurement
ADI-18999 (antibody, V domains shown, full-length IgG) VH: QVQLVQSGAEVKKPGSSVKVSCKASGGRFSSDAISWVRQAPGQGLEWMGGIIPIRGTPTYAQKFQGRVTIIADESTTTSYMEMSSLRSEDTAVYYCARPNYDILTGYNDAFDIWGQGTMVTVSS VL: QSVLTQPRSVSGSPGQSVTISCTGTSSDVGGYNYVSWYQQHPGKVPRLMIYDVSKRPSGAPDRFSGSKSGNTASLTISGLQAEDEADYYCCSYAGGLYVFGTGTKLTVL | 0.167 nM
ADI-18982 (antibody, V domains shown, full-length IgG; also called Antibody Number 330) VH: QVQLVQSGAEVKKPGASVKVSCKASGYIFTSYGVSWVRQAPGQGLKWMGWISGYNGNTNYDQKLQGRVTMTTDTSTSTAYMELRSLTSDDTAVYYCARDSFSETGTGFPDFWGQGTLVTVSS VL: DIQMTQSPLSLPVTLGQPASISCRSSQSLEYSDGNTYLNWFQQRPGQSPRRLIYKVSNRDSGVPDRFSGSGSGTDFTLKISRVEAEDVGVYYCMQATHRPRTFGQGTKLEIK | 0.765 nM

Turning to the following binder.
Fill in the blank: the reported Kd of ADI-18990 (antibody, V domains shown, full-length IgG) VH: QVQLQESGPGRVKPSQTLSLTCTVSGVSVTINDYYWTWLRQSPGKGLEWIGNIYNSGSTYQNPSLQSRVTMSVDTAKNHFSLKLTSVTAADTAVYYCARDLGTANNYYFGMDVWGLGTTVTVSS VL: DIVLTQSPATLSLSPGERATLSCRASQSVSTYLAWYQQKPGQAPRLLIYNGSNRVTGTPARFSGSGSGTDFTLTISSVEPEDFAVYYCQQRSNWPPYTFGQGTKVEIK is ____.
0.294 nM
